Data credit: ChEMBL document CHEMBL1130403

- Test Target: UniProt Q72547
pIC50: −log10 of the molar value.
Outcome label depends on pIC50 relative to 6: at/above gives Criterion met, below gives Criterion not met.

                                   compound     test_target     classification
0  Fc1cccc(F)c1Cn1c(-c2c(F)cccc2F)nc2ccccc21  UniProt Q72547      Criterion met
1    Cc1cccc2c1nc(-c1c(F)cccc1F)n2Cc1ccccc1  UniProt Q72547  Criterion not met
2     Fc1cccc(F)c1Cn1c(-c2ccccc2)nc2ccccc21  UniProt Q72547  Criterion not met
3       Fc1cccc(F)c1-c1nc2ccccc2n1Cc1ccccc1  UniProt Q72547  Criterion not met
4  Fc1cccc(F)c1C1SCc2nc3ccccc3n21 (stereo unspecified) [THIAZOLOBENZIMIDAZOLE]  UniProt Q72547      Criterion met
5  Cc1cccc2c1nc(-c1c(F)cccc1F)n2Cc1c(F)cccc1F  UniProt Q72547      Criterion met
